- Test Summary: chemical genetic growth profiling, strain panel (AID 1159580);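 also: tested at 20 µM; growth read once vehicle control cultures reached saturation at 30 °C; 1 = growth at the plate median or of vehicle wells; lower values mean less growth of the strain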
- Assay Conditions: S. cerevisiae deletion strains, growth OD, locus YOL012C, strain htz1
Screen size: about 5,500 compounds; about 2,000 (36%) were called active. About 18% were inconclusive and are not listed. The list shows a part of the results.
Assay Endpoint: normalized growth
Give the value as a plain number.

{"columns": ["Compound", "Assay Value"],
 "data": [
  ["O=c1c(-c2ccc(O)cc2)coc2cc(O)ccc12", 0.695],
  ["COc1ccc(C(=O)CC(=O)O)c2c1C=CC(C)(C)O2", 0.738],
  ["CC1COc2c(N3CCN(C)CC3)c(F)cc3c(=O)c(C(=O)O)cn1c23 (stereo not given)", 1.78],
  ["CN(C)CCOC(c1ccc(Cl)cc1)c1ccccn1 (stereo not given)", 0.873]
]}

Measured normalized growth of CC(=O)Oc1cc(OC(C)=O)c2c(c1)O[C@H](c1ccc(OC(C)=O)c(OC(C)=O)c1)[C@@H](OC(C)=O)C2 : 0.674

Measured normalized growth of Cc1ccc(S(=O)(=O)NC(=O)NN2CCCCCC2)cc1 : 1.06

Measured normalized growth of O=C(O[C@@H]1Cc2c(O)cc(O)cc2O[C@@H]1c1cc(O)c(O)c(O)c1)c1cc(O)c(O)c(O)c1 : 0.219

Measured normalized growth of CC[C@@]1(O)C[C@H](O[C@H]2C[C@H](N(C)C)[C@H](O)[C@H](C)O2)c2c(cc3c(c2O)C(=O)c2c(O)ccc(O)c2C3=O)[C@H]1C(=O)OC : 0.253

Measured normalized growth of COc1ccc(-c2coc3cc(O)ccc3c2=O)c(OC)c1 : 0.93

Measured normalized growth of CC[C@@]1(O)C[C@H](O[C@H]2C[C@H](N(C)C)[C@H](O)[C@H](C)O2)c2c(cc3c(c2O)C(=O)c2c(O)cccc2C3=O)[C@H]1C(=O)OC : 0.351

Measured normalized growth of COc1ccc(CN(CCN(C)C)c2ccccn2)cc1 : 0.809
